- Tested target: MARK3 (Homo sapiens, UniProt P27448)
- Sequence (P27448 whole entry, species assumed): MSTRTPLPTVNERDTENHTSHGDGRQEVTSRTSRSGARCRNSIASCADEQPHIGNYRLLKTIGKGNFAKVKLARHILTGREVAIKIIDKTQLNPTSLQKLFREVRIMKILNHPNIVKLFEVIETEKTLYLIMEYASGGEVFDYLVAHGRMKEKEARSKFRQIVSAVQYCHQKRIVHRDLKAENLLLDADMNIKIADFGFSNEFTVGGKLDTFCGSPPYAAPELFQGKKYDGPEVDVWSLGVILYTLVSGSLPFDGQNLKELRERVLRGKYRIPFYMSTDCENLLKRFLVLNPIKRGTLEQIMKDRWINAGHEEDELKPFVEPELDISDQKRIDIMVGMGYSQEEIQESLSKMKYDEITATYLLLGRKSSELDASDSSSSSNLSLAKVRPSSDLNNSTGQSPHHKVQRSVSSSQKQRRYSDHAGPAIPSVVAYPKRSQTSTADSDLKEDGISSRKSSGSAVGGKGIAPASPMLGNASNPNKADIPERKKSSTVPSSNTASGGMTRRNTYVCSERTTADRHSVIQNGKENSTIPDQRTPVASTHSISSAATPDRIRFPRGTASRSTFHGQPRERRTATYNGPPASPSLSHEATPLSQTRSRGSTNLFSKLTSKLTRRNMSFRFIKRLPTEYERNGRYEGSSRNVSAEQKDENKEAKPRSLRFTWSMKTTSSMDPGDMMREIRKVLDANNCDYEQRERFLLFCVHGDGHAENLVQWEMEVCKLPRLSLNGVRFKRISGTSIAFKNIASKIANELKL
- Assay overview: MARK 3 Assay (HTRF, Cdc25C biotinylated peptide substrate)
- Condition parameters: 10 μM ATP, 10 nM recombinant MARK3 enzyme
yes (1) if IC50 is below 3 nM. no (0) if not; exact matches included in no (0).

Examples with answers:
{"Compound": "Cc1sc(C(=O)N[C@@H]2CCCC[C@@H]2N)cc1-c1cnn2cc(-c3cnn(C)c3)cnc12 [reference compound]", "Discrete label": "yes (1)"}
{"Compound": "CCc1sc(C(=O)N[C@@H]2[C@@H](N)CCCC2(F)F)cc1-c1cnn2cc(C(F)(F)F)cnc12 [Example 6]", "Discrete label": "no (0)"}
{"Compound": "CCOc1cnc2c(-c3cc(C(=O)N[C@@H]4[C@H](N)CCCC4(F)F)sc3CC)cnn2c1 [Example 15]", "Discrete label": "yes (1)"}
{"Compound": "CCc1sc(C(=O)N[C@@H]2[C@@H](N)CCCC2(F)F)cc1-c1cnn2cc(Cl)cnc12 [Example 4]", "Discrete label": "no (0)"}

Consider the additional compound presented here.
**Q:** Given Cc1sc(C(=O)N[C@@H]2[C@@H](N)CCCC2(F)F)cc1-c1cnn2cc(OC(F)F)cnc12 [Example 10] , is recorded IC50 strictly lower than 3 nM?
**A:** no (0)

The origin of these recorded values is patent US8946237B2.
